# STUDY SYSTEM: MtFolB (Mycobacterium tuberculosis, UniProt P9WNC5)
# Construct: made in house
# Sequence (P9WNC5 whole entry): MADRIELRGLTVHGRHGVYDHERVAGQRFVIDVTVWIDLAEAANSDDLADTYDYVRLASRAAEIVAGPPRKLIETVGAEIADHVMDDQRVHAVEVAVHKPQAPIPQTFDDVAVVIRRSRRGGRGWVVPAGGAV
# PROTOCOL: Mode of inhibition and inhibition constants on MtFolB aldolase activity (Lineweaver-Burk)
# Format: biochemical
# RUN PARAMETERS: towards DHNP, Lineweaver-Burk plots

>  <SMILES RECORD>
Nc1nc2[nH]c(SCC(=O)c3ccc(Cl)cc3)nc2c(=O)[nH]1

>  <Inhibition mode>
Non-competitive

$$$$
>  <SMILES RECORD>
CCCCCCCc1ccc(NC(=O)CSc2nc3c(=O)[nH]c(N)nc3[nH]2)cc1

>  <Inhibition mode>
Non-competitive

$$$$
>  <SMILES RECORD>
Nc1nc2nc(S)[nH]c2c(=O)[nH]1

>  <Inhibition mode>
Non-competitive

$$$$

###

Entries and their melting point

As a guide, the following entries are already answered.
>  <COMPOUND>
Nc1nc2[nH]c(SCc3ccc(Cl)cc3)nc2c(=O)[nH]1 [Compound 2f]

>  <melting point>
291 to 294 °C

$$$$
>  <COMPOUND>
Nc1nc2[nH]c(SCc3ccc(F)cc3)nc2c(=O)[nH]1 [Compound 2d]

>  <melting point>
299 to 300 °C

$$$$
>  <COMPOUND>
Nc1nc2[nH]c(SCC(=O)c3ccc(Cl)cc3)nc2c(=O)[nH]1 [Compound 3b]

>  <melting point>
300 to 316 °C

$$$$
>  <COMPOUND>
CCCCCCCc1ccc(NC(=O)CSc2nc3c(=O)[nH]c(N)nc3[nH]2)cc1 [Compound 4h]

>  <melting point>
> 310 °C

$$$$
>  <COMPOUND>
Nc1nc2[nH]c(SCc3ccccc3F)nc2c(=O)[nH]1 [Compound 2c]

>  <melting point>
289 to 290 °C

$$$$
>  <COMPOUND>
Nc1nc2[nH]c(SCc3ccc(Cl)c(Cl)c3)nc2c(=O)[nH]1 [Compound 2g]

>  <melting point>
290 to 291 °C

$$$$
>  <COMPOUND>
Nc1nc2[nH]c(SCc3ccc4ccccc4c3)nc2c(=O)[nH]1 [Compound 2b]

>  <melting point>
286 to 287 °C

$$$$
>  <COMPOUND>
Nc1nc2[nH]c(SCC(=O)Nc3ccc4ccccc4c3)nc2c(=O)[nH]1 [Compound 4b]

>  <melting point>
286 to 289 °C

$$$$

Req: Which melting point value belongs to Nc1nc2[nH]c(SCC(=O)Nc3ccc(Br)cc3)nc2c(=O)[nH]1 [Compound 4f] ?
Resp: > 310 °C

Req: Which melting point value belongs to Nc1nc2[nH]c(SCC(=O)c3ccccc3)nc2c(=O)[nH]1 [Compound 3a] ?
Resp: > 310 °C

###

Entries and their Ki
# STUDY SYSTEM: MtFolB (Mycobacterium tuberculosis, UniProt P9WNC5)
# PROTOCOL: Mode of inhibition and inhibition constants on MtFolB aldolase activity (Lineweaver-Burk)
# RUN PARAMETERS: towards DHNP; enzyme-inhibitor complex; 300 nM MtFolB; read-out: Kis
Output spec: scalar in nM, unitless text.

As a guide, the following entries are already answered.
>  <COMPOUND>
Nc1nc2[nH]c(SCC(=O)c3ccc(Cl)cc3)nc2c(=O)[nH]1 [Compound 3b]

>  <STUDY SYSTEM>
MtFolB (Mycobacterium tuberculosis, UniProt P9WNC5)

>  <UNIT OF MEASUREMENT>
nM

>  <Ki>
400

$$$$
>  <COMPOUND>
Nc1nc2nc(S)[nH]c2c(=O)[nH]1 [8-MG (1), 8-mercaptoguanine]

>  <STUDY SYSTEM>
MtFolB (Mycobacterium tuberculosis, UniProt P9WNC5)

>  <UNIT OF MEASUREMENT>
nM

>  <Ki>
300

$$$$
>  <COMPOUND>
CCCCCCCc1ccc(NC(=O)CSc2nc3c(=O)[nH]c(N)nc3[nH]2)cc1 [Compound 4h]

>  <STUDY SYSTEM>
MtFolB (Mycobacterium tuberculosis, UniProt P9WNC5)

>  <UNIT OF MEASUREMENT>
nM

>  <Ki>
500

$$$$

Now look at this one.
Req: Given the entry Nc1nc2[nH]c(SCC(=O)Nc3ccc(Br)cc3)nc2c(=O)[nH]1 [Compound 4f] , what Ki was observed with MtFolB (Mycobacterium tuberculosis, UniProt P9WNC5)?
Resp: 100

###

MtFolB (Mycobacterium tuberculosis, UniProt P9WNC5): reported IC50 for various molecules.
Output spec: scalar in nM, unitless text.

>  <MOLECULE>
COc1ccccc1C(=O)CSc1nc2nc(N)[nH]c(=O)c2[nH]1 [Compound 3c]

>  <IC50 (nM)>
1300

$$$$
>  <MOLECULE>
Nc1nc2[nH]c(SCc3ccccc3F)nc2c(=O)[nH]1 [Compound 2c]

>  <IC50 (nM)>
8000

$$$$
>  <MOLECULE>
Nc1nc2[nH]c(SCC(=O)c3ccccc3)nc2c(=O)[nH]1 [Compound 3a]

>  <IC50 (nM)>
900

$$$$
>  <MOLECULE>
Nc1nc2[nH]c(SCc3ccc(F)cc3)nc2c(=O)[nH]1 [Compound 2d]

>  <IC50 (nM)>
8000

$$$$
>  <MOLECULE>
Nc1nc2[nH]c(SCC(=O)Nc3ccc(Cl)cc3)nc2c(=O)[nH]1 [Compound 4e]

>  <IC50 (nM)>
800

$$$$

Req: Which IC50 value belongs to Nc1nc2[nH]c(SCc3ccc(Cl)c(Cl)c3)nc2c(=O)[nH]1 [Compound 2g] ?
Resp: 5500

Req: Which IC50 value belongs to Nc1nc2nc(S)[nH]c2c(=O)[nH]1 [8-MG (1), 8-mercaptoguanine] ?
Resp: 300

Req: Which IC50 value belongs to CCCc1ccc(NC(=O)CSc2nc3c(=O)[nH]c(N)nc3[nH]2)cc1 [Compound 4g] ?
Resp: 900

Req: Which IC50 value belongs to Nc1nc2[nH]c(SCC(=O)NCc3ccccc3)nc2c(=O)[nH]1 [Compound 4c] ?
Resp: 12300

Req: Which IC50 value belongs to Nc1nc2[nH]c(SCc3ccccc3Cl)nc2c(=O)[nH]1 [Compound 2e] ?
Resp: 4200

Req: Which IC50 value belongs to Nc1nc2[nH]c(SCC(=O)Nc3ccc(Br)cc3)nc2c(=O)[nH]1 [Compound 4f] ?
Resp: 500

Req: Which IC50 value belongs to Nc1nc2[nH]c(SCC(=O)Nc3ccc4ccccc4c3)nc2c(=O)[nH]1 [Compound 4b] ?
Resp: 700

Req: Which IC50 value belongs to Nc1nc2[nH]c(SCC(=O)c3ccc(Cl)cc3)nc2c(=O)[nH]1 [Compound 3b] ?
Resp: 300

Req: Which IC50 value belongs to Nc1nc2[nH]c(SCc3ccc(Cl)cc3)nc2c(=O)[nH]1 [Compound 2f] ?
Resp: 2200

Req: Which IC50 value belongs to Nc1nc2[nH]c(SCc3ccccc3)nc2c(=O)[nH]1 [Compound 2a] ?
Resp: 7100

Req: Which IC50 value belongs to Nc1nc2[nH]c(SCC(=O)Nc3ccccc3)nc2c(=O)[nH]1 [Compound 4a] ?
Resp: 2200

Req: Which IC50 value belongs to CCCCCCCc1ccc(NC(=O)CSc2nc3c(=O)[nH]c(N)nc3[nH]2)cc1 [Compound 4h] ?
Resp: 400

###

# STUDY SYSTEM: MtFolB (Mycobacterium tuberculosis, UniProt P9WNC5)
Entries and their IC50
Output spec: scalar in nM, unitless text.

As a guide, the following entries are already answered.
>  <SMILES RECORD>
Nc1nc2[nH]c(SCc3ccc4ccccc4c3)nc2c(=O)[nH]1

>  <IC50, nM>
1300

$$$$
>  <SMILES RECORD>
Nc1nc2[nH]c(SCc3ccc(Br)cc3)nc2c(=O)[nH]1

>  <IC50, nM>
3000

$$$$

Req: Given the entry Nc1nc2[nH]c(SCC(=O)Nc3ccc(F)cc3)nc2c(=O)[nH]1 , what IC50 was observed with MtFolB (Mycobacterium tuberculosis, UniProt P9WNC5)?
Resp: 2000
